pEC50 values by entry
Target: T1, human alpha2-Antiplasmin (human, UniProt P08697 40-491)
T1 construct: Bought (antibodies online, ABIN2544306); also called human A2AP; a2AP
T1 sequence: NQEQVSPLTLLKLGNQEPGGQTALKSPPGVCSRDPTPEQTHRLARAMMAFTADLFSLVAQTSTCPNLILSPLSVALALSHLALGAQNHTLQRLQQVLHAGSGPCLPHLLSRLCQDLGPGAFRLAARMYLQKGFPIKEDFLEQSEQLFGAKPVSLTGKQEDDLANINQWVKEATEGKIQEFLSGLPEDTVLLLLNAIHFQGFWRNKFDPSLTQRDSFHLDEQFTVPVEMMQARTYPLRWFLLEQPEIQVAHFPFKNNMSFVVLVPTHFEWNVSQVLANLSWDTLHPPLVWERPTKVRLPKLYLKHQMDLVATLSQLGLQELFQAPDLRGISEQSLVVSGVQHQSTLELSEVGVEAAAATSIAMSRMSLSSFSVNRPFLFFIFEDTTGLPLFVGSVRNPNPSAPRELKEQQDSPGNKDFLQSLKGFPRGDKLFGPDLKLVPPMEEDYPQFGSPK
Assay: ELISA, coated antigen, 2nd exp.
pEC50 here is simply -log10 of the concentration when that concentration is written in mol/L.

Below, 4 binders whose answers are already recorded.
{"binder": "TPP-14308 hIgG1 (antibody, V domains shown, starting point of the germlining) VH: EVQLLESGGGLVQPGGSLRLSCAASGFTFDDYAMSWVRQAPGKGLEWVSAIGTGGGTYYADSVKGRFTISRDNSKNTLYLQMNSLRAEDTAVYYCAREGYDSSGYYHLDYWGQGTLVTVSS VL: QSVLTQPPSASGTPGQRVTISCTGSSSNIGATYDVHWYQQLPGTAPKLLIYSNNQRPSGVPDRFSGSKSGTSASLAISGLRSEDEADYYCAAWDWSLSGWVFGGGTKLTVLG", "pEC50": 7.21}
{"binder": "TPP-14323 hIgG1 (antibody, V domains shown) VH: EVQLLESGGGLVQPGGSLRLSCAASGFTFDDYAMSWVRQAPGKGLEWVSAIGTGGGTYYADSVKGRFTISRDNSKNTLYLQMNSLRAEDTAVYYCAREYYDSSGYYHLTYWGQGTLVTVSS VL: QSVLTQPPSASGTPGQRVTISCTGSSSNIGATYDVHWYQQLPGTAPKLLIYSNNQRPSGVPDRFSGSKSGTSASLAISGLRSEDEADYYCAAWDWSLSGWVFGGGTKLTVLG", "pEC50": 7.14}
{"binder": "TPP-14314 hIgG1 (antibody, V domains shown, Human IgG1 lambda) VH: EVQLLESGGGLVQPGGSLRLSCAASGFTFDDYAMSWVRQAPGKGLEWVSAIGTGGGTYYADSVKGRFTISRDNSKNTLYLQMNSLRAEDTAVYYCAREYYDSSGYYHLVYWGQGTLVTVSS VL: QSVLTQPPSASGTPGQRVTISCTGSSSNIGATYDVHWYQQLPGTAPKLLIYSNNQRPSGVPDRFSGSKSGTSASLAISGLRSEDEADYYCAAWDVSLSGWVFGGGTKLTVL", "pEC50": 7.09}
{"binder": "TPP-14293 hIgG1 (antibody, V domains shown) VH: EVQLLESGGGLVQPGGSLRLSCAASGFTFDDYAMSWVRQAPGKGLEWVSAIGTGGGTYYADSVKGRFTISRDNSKNTLYLQMNSLRAEDTAVYYCDREYYDSSGYYHLDYWGQGTLVTVSS VL: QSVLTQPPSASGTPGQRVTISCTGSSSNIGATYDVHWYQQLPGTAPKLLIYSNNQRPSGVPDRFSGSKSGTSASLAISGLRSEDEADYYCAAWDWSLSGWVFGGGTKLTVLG", "pEC50": 7.92}

Turning now to a further binder:
## Input Item under review: TPP-14303 hIgG1 (antibody, V domains shown) VH: EVQLLESGGGLVQPGGSLRLSCAASGFTFDDYAMSWVRQAPGKGLEWVSAIGTGGGTYYADSVKGRFTISRDNSKNTLYLQMNSLRAEDTAVYYCAREDYDSSGYYHLDYWGQGTLVTVSS VL: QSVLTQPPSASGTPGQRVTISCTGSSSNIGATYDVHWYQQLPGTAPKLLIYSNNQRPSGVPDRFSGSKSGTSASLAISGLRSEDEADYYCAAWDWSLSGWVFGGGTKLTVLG . Reported pEC50?
## Output 7.54
